Target: UniProt P08909
Sequence (P08909 whole entry): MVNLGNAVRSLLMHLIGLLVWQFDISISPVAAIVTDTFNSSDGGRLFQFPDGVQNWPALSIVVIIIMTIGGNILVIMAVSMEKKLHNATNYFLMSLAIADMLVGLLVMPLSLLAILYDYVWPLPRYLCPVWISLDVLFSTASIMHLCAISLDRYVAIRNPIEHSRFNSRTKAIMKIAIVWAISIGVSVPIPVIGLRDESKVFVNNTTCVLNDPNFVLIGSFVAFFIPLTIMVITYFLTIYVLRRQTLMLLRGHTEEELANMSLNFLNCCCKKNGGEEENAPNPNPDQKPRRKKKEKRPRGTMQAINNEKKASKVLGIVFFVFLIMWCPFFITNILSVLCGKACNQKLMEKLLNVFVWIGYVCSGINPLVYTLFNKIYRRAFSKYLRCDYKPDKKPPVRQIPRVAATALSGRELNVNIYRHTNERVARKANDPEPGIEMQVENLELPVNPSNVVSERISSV
Measured IC50, listed per entry.

# given smiles, IC50 / nM
measured = [
    ("COc1ccc2[nH]cc(C[C@@H]3CCCN3C)c2c1", 1200),
    ("COc1ccc2[nH]cc(C[C@H]3CCCN3C)c2c1", 33),
]

###

Measured pEC50, listed per entry.
Target: 5-hydroxytryptamine receptor 1D (Cavia porcellus, UniProt Q60484)
Sequence (Q60484 whole entry): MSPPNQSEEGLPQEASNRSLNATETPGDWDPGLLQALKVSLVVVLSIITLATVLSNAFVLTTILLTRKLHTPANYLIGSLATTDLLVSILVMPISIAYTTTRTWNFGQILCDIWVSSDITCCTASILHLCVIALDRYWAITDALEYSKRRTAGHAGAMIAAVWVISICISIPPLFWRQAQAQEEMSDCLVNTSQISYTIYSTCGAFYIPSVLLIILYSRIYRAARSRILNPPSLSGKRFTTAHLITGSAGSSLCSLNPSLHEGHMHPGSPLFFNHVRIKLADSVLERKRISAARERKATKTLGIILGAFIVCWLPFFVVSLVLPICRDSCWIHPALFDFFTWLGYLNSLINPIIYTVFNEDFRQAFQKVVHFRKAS
Experiment: Effect on forskolin stimulated adenylate cyclase activity at 5-HT1D receptor of guinea pig substantia nigra.
pEC50: −log10 of the molar value.

# given smiles, pEC50
rows = [
    ("NCCc1c[nH]c2ccc(O)cc12", 8.28),
    ("COc1ccc2[nH]cc(C[C@H]3CCCN3C)c2c1", 7.37),
]

###

This section lists IC50 readings for 5-hydroxytryptamine receptor 1D (Cavia porcellus).

# molecule, IC50, µM
records = [
    ("COc1ccc2[nH]cc(C[C@H]3CCCN3C)c2c1", 0.024),
    ("NCCc1c[nH]c2ccc(O)cc12 [SEROTONIN]", 0.003),
    ("COc1ccc2[nH]cc(C[C@@H]3CCCN3C)c2c1", 0.42),
    ("COc1ccc2[nH]cc(CCN(C)C)c2c1 [MEBUFOTENIN]", 0.049),
]
